Measured Stomach (% ID) by item
Tested on: LNCaP tumor-transplanted mouse
EXPERIMENTAL_DETAILS: Internal radioactivity distribution using LNCaP tumor-transplanted mouse
Assay type: in vivo
MEASUREMENT_PARAMETERS: 192 h after administration

COMPOUND	UNITS_TEXT	Stomach (% ID)
O=C([O-])CN(Cc1cccc(C(=O)[O-])n1)C[C@H](Cc1ccc(NC(=O)[C@H](CCCCNC(=O)CCC(=O)NCCCC[C@H](NC(=O)N[C@@H](CCC(=O)O)C(=O)O)C(=O)O)NC(=O)CCCc2ccc(I)cc2)cc1)N(CC(=O)[O-])Cc1cccc(C(=O)[O-])n1.[111In+3] [[^111In]In-Octapa-2]	% ID	0.01
O=C([O-])CN(Cc1cccc(C(=O)[O-])n1)C[C@H](Cc1ccc(NC(=O)[C@H](CCCCNC(=O)CCC(=O)NCCCC[C@H](NC(=O)N[C@@H](CCC(=O)O)C(=O)O)C(=O)O)NC(=O)COCCOCCOCC(=O)N[C@@H](CCCCNC(=O)CCCc2ccc(I)cc2)C(=O)O)cc1)N(CC(=O)[O-])Cc1cccc(C(=O)[O-])n1.[111In+3] [[^111In]In-Octapa-3]	% ID	0.01
O=C([O-])CN1CCN(C(CCC(=O)NCCCC[C@H](NC(=O)N[C@@H](CCC(=O)O)C(=O)O)C(=O)O)C(=O)[O-])CCN(CC(=O)[O-])CCN(C(CCC(=O)Nc2ccccc2)C(=O)[O-])CC1.[111In+3] (stereo partly drawn) [[^111In]In-PSMA-DB, reference compound]	% ID	0.05
